# Assay summary: qHTS Assay for inhibitors of the human cytomegalovirus (HCMV); further: on the % scale 0 is the no-effect control and ±100 the full control effect
# Reported conditions: HFF cells, HCMV-luciferase reporter, 72 h; at 57.5 µM; active compounds read low
Screen size: about 410,000 compounds; about 18,000 (4.4%) were called active. About 7% were inconclusive and are not listed. The sample holds actives, similar compounds and a random draw of the others, so the mix is not that of the screen.

Compound: O=C1CCCc2cc(S(=O)(=O)N3CCCC(C(=O)NCc4ccccc4)C3)ccc2N1 (centres undefined)
activity change, negative = inhibition (%): -3.71

Compound: COc1ccccc1OCCNc1cc(N2CCOCC2)ccc1[N+](=O)[O-]
activity change, negative = inhibition (%): 63.8

Compound: COc1ccc(CCNC(=O)C(=O)NCc2ccccc2C)cc1OC
activity change, negative = inhibition (%): -36

Compound: CCCCCn1c(=O)[nH]c2cc(C(=O)NCCCN3CCCCC3C)ccc2c1=O (centres undefined)
activity change, negative = inhibition (%): -19.8

Compound: CCOC(=O)c1c(NC(=O)/C=C/c2ccc(OC)cc2)sc2c1CCC(C)C2 (centres undefined)
activity change, negative = inhibition (%): -22.4

Compound: Cc1ccc(S(=O)(=O)N2C[C@@H]3CCCC[C@@H]3[C@@H](C)[C@H]2c2cn(Cc3ccccc3)c3ccc(F)cc23)cc1
activity change, negative = inhibition (%): -65.2

Compound: Cc1nn(-c2ccc(N3CCCCC3)nn2)c(C)c1CCC(=O)NCc1ccccc1F
activity change, negative = inhibition (%): -16.6

Compound: COc1ccccc1NC(=O)C1=C(C)Nc2nc(SCC(=O)c3ccc(C)cc3)nn2C1c1ccccc1C (centres undefined)
activity change, negative = inhibition (%): -1.97

Compound: CC(=O)Nc1cc(C(=O)NCc2ccc(F)cc2Cl)ccc1Sc1ccc(Cl)cc1
activity change, negative = inhibition (%): 5.5

Compound: Cc1cc(NC(=O)c2ccc(-c3ccc(Cl)cc3)o2)cc(-c2nc3ncccc3o2)c1O
activity change, negative = inhibition (%): 5.53

Compound: Cc1ccc(S(=O)(=O)c2cn(Cc3ccccc3)c3cc(N4CCCC4)c(F)cc3c2=O)c(C)c1
activity change, negative = inhibition (%): 10.5

Compound: O=C(Nc1cccc(Cl)c1)c1csnn1
activity change, negative = inhibition (%): -2.8

Compound: CC1=C(C(=O)N(C(C)C)C(C)C)CC(CC(=O)NCCCCc2ccccc2)C(=O)N1CCC1=CCCCC1 (centres undefined)
activity change, negative = inhibition (%): -112

Compound: Cc1ccc(C2C=C(c3ccc(Cl)cc3)Nc3nc(NC(=O)CCC(=O)O)nn32)cc1 (centres undefined)
activity change, negative = inhibition (%): -19.9

Compound: COc1ccc(CCNc2cc(N3CCN(C(=O)c4ccccc4OC)CC3)ccc2[N+](=O)[O-])cc1OC
activity change, negative = inhibition (%): -94

Compound: CCOc1ccc(NC(=O)CCc2c(C)nn(-c3ccc(N4CCCC4)nn3)c2C)cc1
activity change, negative = inhibition (%): -23.2

Compound: CC1=C(C(=O)N(C)C)CC(CC(=O)NCCc2ccccn2)C(=O)N1CCC1=CCCCC1 (centres undefined)
activity change, negative = inhibition (%): 8.56

Compound: COc1ccc(N2C(=O)CCC(C(=O)N(C)C3CCCCC3)C2c2ccc(OC)c(OC)c2)cc1 (centres undefined)
activity change, negative = inhibition (%): -12.4

Compound: CC(=O)N1C[C@@H](CO)[C@@H](N(C)C(=O)c2ccco2)C[C@H]1c1ccccc1
activity change, negative = inhibition (%): -4.23

====

# Assay summary: qHTS Assay for inhibitors of the human cytomegalovirus (HCMV); further: on the % scale 0 is the no-effect control and ±100 the full control effect
# Reported conditions: HFF cells, HCMV-luciferase reporter, 72 h; at 57.5 µM
# Description: NCGC Assay Overview: Infection with human cytomegalovirus (HCMV) continues to pose significant threats for pregnant women and immunocompromised hosts. […] This is a cell-based assay for HCMV inhibition in HFFs cells. […] At 72 h post infection cell lysates were collected and luciferase activity was determined using the Glomax-Multi + Detection System (Promega, Madison, WI). […]
The whole screen tested about 410,000 compounds, of which about 18,000 (4.4%) were called active. Not shown: some 7% with an inconclusive outcome. Rule as the data show it: active = activity change below about -60%; inconclusive = no clear call, values can overlap the other calls; inactive = above about -39%. Many of the other results were omitted from the sample, so actives are more common in it than they were.
Outcomes: 1 = active, -1 = inactive

Compound: Cc1cccc(N2CCN(C(=O)c3oc(=O)c4ccccc4c3-c3ccccc3)CC2)c1C
Answer label: -1
//
Compound: Cc1cc([N+](=O)[O-])c(NC2CCCCC2)c([N+](=O)[O-])c1
Answer label: -1
//
Compound: Cc1nn(C)cc1/C=C1\CCC/C(=C\c2cn(C)nc2C)C1=O
Answer label: -1
//
Compound: N#Cc1cc([N+](=O)[O-])ccc1NCC1CCCO1 (stereo not drawn)
Answer label: -1
//
Compound: Cc1ccc(C)c(OCC(=O)Nc2sc3c(c2C#N)CCCC3)c1C
Answer label: -1
//
Compound: CC(C)CNC(=S)NNC(=O)c1ccccc1OC(F)F
Answer label: -1
//
Compound: CCOC(=O)C1CN(S(=O)(=O)c2ccc(F)cc2)C1
Answer label: -1
//
Compound: CC(C)(C)c1nnc2sc(SCC(O)=C(C#N)c3nc4ccccc4[nH]3)nn2c1=O
Answer label: -1
//
Compound: Cc1ccc(OCCCCN2CCCCC2)c(Br)c1
Answer label: -1
//
Compound: C=CCOC(=O)C1=C[C@@H](c2ccccc2)C[C@@H](OCc2ccc(CO)cc2)O1
Answer label: -1
//
Compound: COc1ccccc1CNC(=O)c1ccc(-n2c(C)cc3c2CCCC3)cc1
Answer label: -1
//
Compound: CC(=O)N1Cc2cc(C(=O)NCc3cccc(F)c3)nc(-c3cccc(C4=CCCCC4)c3)c2[C@H]1CCO
Answer label: -1
//
Compound: Cc1ccc(Nc2ccc3cc(S(=O)(=O)N4CCCCC4)ccc3n2)cc1F
Answer label: 1
//
Compound: COc1ccc(CCNS(=O)(=O)c2cccc([N+](=O)[O-])c2)cc1
Answer label: -1
//
Compound: CC(C)NC(=O)C1CCC(Cn2c(=O)c3sccc3n(Cc3ccc(F)cc3)c2=O)CC1 (stereo not drawn)
Answer label: -1
//
Compound: O=C(Nc1ccc(Cl)cc1)c1csc(C(O)c2cccc(C(F)(F)F)c2)n1 (stereo not drawn)
Answer label: -1
//
Compound: Cc1scc(C(=O)NNC(=S)NCC(C)C)c1C
Answer label: -1
//
Compound: O=S(=O)(c1ccc2nc(NCc3ccccc3Cl)ccc2c1)N1CCCCC1
Answer label: -1
//
Compound: C=CCSc1nc(N)cc(=O)[nH]1
Answer label: -1
//
Compound: CC(C)CNC(=O)CC(c1ccccc1)c1c(O)ccc2ccccc12 (stereo not drawn)
Answer label: -1
//
Compound: Cc1ccc(-c2cnc(NCc3ccc(C(C)C)cc3)n2C)cc1
Answer label: -1
//
Compound: c1ccc(-c2nc(NCc3ccco3)c3ccccc3n2)cc1
Answer label: 1
//
Compound: Cc1cc(C)c(NC(=O)CSc2nc3nccnc3c(=O)n2CCc2c[nH]c3ccccc23)c(C)c1
Answer label: -1
//
Compound: Cc1cc([N+](=O)[O-])ccc1NC1CCCC1
Answer label: 1
//
Compound: COc1ccc(/C=C/c2nc(C#N)c(NCc3ccc(F)cc3)o2)cc1OC
Answer label: -1
//
Compound: COc1cc(NC(=O)C2=CC(c3ccc(C)cc3)=NS(=O)(=O)N2C)cc(OC)c1OC
Answer label: -1
//
Compound: Cc1cc(C)cc(NC(=O)CSc2nc(=O)n(CCN3CCOCC3)c3c2CCC3)c1
Answer label: -1
//
Compound: CCOc1cc(C2C(C(=O)OC)=C(C)NC3=C2C(=O)c2ccccc23)ccc1O (stereo not drawn)
Answer label: -1
//
Compound: COc1ccc(NC(=O)C2=CC(c3ccc(OC)c(OC)c3)=NS(=O)(=O)N2C)cc1
Answer label: 1
//
Compound: Cc1ccccc1NC(=O)c1c(NC(=O)c2ccccc2F)sc2c1CCC(C)C2 (stereo not drawn)
Answer label: -1
//
Compound: N#C/C(=C(/O)COC(=O)COc1ccc(Cl)cc1)c1nc2ccccc2[nH]1
Answer label: 1
//
Compound: CC(=O)c1c(C)n(S(=O)(=O)c2ccc(Cl)cc2)c2ccc(NS(=O)(=O)c3ccc(Cl)cc3)cc12
Answer label: -1
//
Compound: CN(c1ccccc1)c1nc(N)c([N+](=O)[O-])c(NCc2ccco2)n1
Answer label: -1
//
Compound: N#Cc1ccc(CC(O)c2nc(C(=O)Nc3ccccc3)cs2)cc1 (stereo not drawn)
Answer label: 1
//
Compound: CC(=O)c1ccc(NC(c2ccc(F)cc2)c2nnc(-c3ccccc3)o2)cc1 (stereo not drawn)
Answer label: -1
//
Compound: O=C(COC(=O)CCc1c[nH]c2ccccc12)Nc1cccc(Cl)c1
Answer label: -1
//
Compound: CC(=O)N1c2ccc(S(=O)(=O)NCCC(=O)N(C)C3CCCCC3)cc2CC1C (stereo not drawn)
Answer label: -1
//
Compound: COc1ccc(NC(=O)C2CCN(c3ccc(Sc4ccc(C)cc4)nn3)CC2)c(OC)c1
Answer label: -1
//
Compound: Cc1cccc(N2CCN(C(=O)c3cc4c(=O)[nH]c5ccccc5c4n3C)CC2)c1C
Answer label: 1
//
Compound: Cc1ccccc1OCc1nc2c3cnn(-c4ccccc4F)c3ncn2n1
Answer label: -1
//
Compound: NNc1cccc(C=Cc2ccccc2)cc1=O
Answer label: -1
//
Compound: Cc1scc(C(=O)NNC(=S)NCc2ccccc2)c1C
Answer label: 1
//
Compound: Cc1ccc2cccc(NC(=O)C(C)Oc3ccc(C)c(C)c3)c2n1 (stereo not drawn)
Answer label: -1
